Test Summary: Oral bioavailability in monkey at 1 mg/kg
Format: ADME, organism-based, Macaca mulatta
Test Parameters: rhesus monkey, in vivo
Measure Name: bioavailability (%)

> print(dat)
                                smiles.code  unit.spec  observed
1  C[C@]1(CO)Cc2cc(NC(=O)c3cnn4cccnc34)c(N3CCOCC3)cc2O1          %        85

* * *

Test Summary: AUC (infinity) in mouse at 100 mg/kg, po administered as suspension in 10% captisol
Format: ADME, organism-based
Design: dose 100 mg/kg, route oral, time infinity
Test Parameters: in vivo
Measure Name: AUC(0-inf) (µM·h)

> print(dat)
                                smiles.code  measure.name  observed
1  C[C@]1(CO)Cc2cc(NC(=O)c3cnn4cccnc34)c(N3CCOCC3)cc2O1    AUC(0-inf)        98

* * *

Test Summary: Cmax in mouse at 100 mg/kg, po administered as suspension in 10% captisol
Assay type: ADME, organism-based
Parameters: dose 100 mg/kg, route oral
Test Parameters: in vivo
Measure Name: Cmax (µM)

> print(dat)
                                smiles.code  observed
1  C[C@]1(CO)Cc2cc(NC(=O)c3cnn4cccnc34)c(N3CCOCC3)cc2O1       9.7

* * *

Test Summary: AUC (infinity) in dog at 1 mg/kg, po
Type: ADME, organism-based, Canis lupus familiaris
Design: dose 1 mg/kg, time infinity, route oral
Test Parameters: in vivo
Measure Name: AUC(0-inf) (µM·h)

> print(dat)
                                smiles.code  unit.spec  observed
1  C[C@]1(CO)Cc2cc(NC(=O)c3cnn4cccnc34)c(N3CCOCC3)cc2O1       µM·h       1.4

* * *

Test Summary: Cmax in monkey at 1 mg/kg, po
Type: ADME, organism-based, Macaca mulatta
Parameters: dose 1 mg/kg, route oral
Test Parameters: rhesus monkey, in vivo
Measure Name: Cmax (nM)

> print(dat)
                                smiles.code  measure.name  observed
1  C[C@]1(CO)Cc2cc(NC(=O)c3cnn4cccnc34)c(N3CCOCC3)cc2O1          Cmax       300

* * *

Test Summary: AUC (infinity) in mouse at 300 mg/kg, po administered as suspension in MCT
Assay type: ADME, organism-based
Set-up: dose 300 mg/kg, route oral, time infinity
Test Parameters: in vivo
Measure Name: AUC(0-inf)

> print(dat)
                                smiles.code  observed
1  C[C@]1(CO)Cc2cc(NC(=O)c3cnn4cccnc34)c(N3CCOCC3)cc2O1   63 µM·h

* * *

Test Summary: Half-life in mouse at 300 mg/kg, po administered as suspension in MCT
Format: ADME, organism-based
Test Parameters: in vivo
Measure Name: half-life (h)

> print(dat)
                                smiles.code  observed
1  C[C@]1(CO)Cc2cc(NC(=O)c3cnn4cccnc34)c(N3CCOCC3)cc2O1      23.2

* * *

Test Summary: Oral bioavailability in mouse at 100 mg/kg administered as suspension in MCT
Format: ADME, organism-based
Test Parameters: in vivo
Measure Name: bioavailability (%)

> print(dat)
                                smiles.code  unit.spec  observed
1  C[C@]1(CO)Cc2cc(NC(=O)c3cnn4cccnc34)c(N3CCOCC3)cc2O1          %        19

The values you see were collected from ChEMBL document CHEMBL4359811.
